# tgt: T1, UNK ZnF1-3 (human, UniProt Q9C0B0 31-174)
# T1 sequence: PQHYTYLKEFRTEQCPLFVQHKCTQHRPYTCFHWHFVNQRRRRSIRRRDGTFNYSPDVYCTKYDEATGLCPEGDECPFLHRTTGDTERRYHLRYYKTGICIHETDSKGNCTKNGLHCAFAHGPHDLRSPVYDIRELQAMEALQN
# assay.summary: nsRBNS (natural sequence RNA bind-n-seq); RBNS binding buffer (assumed for nsRBNS): 25 mM Tris pH 7.5, 150 mM KCl, 3 mM MgCl2, 0.01% Triton X-100, 500 ug/ml BSA, 20 U/ml SUPERase-In, 4 C; UNK is unkempt and MSI1 is Musashi-1; names of the RNAs are library labels; protein concentration not given here; high values mean tight binding
In all, about 24,000 sequences were measured (“enrichment r”: median about 0.99, highest 2% from about 3.7 on). The entries come from a sample that favours the highest values as a whole.
assay.readout: binding signal (enrichment R)
Lab book: enter the figure in enrichment R, no units written.

{"columns": ["binder", "binding signal (enrichment R)"],
 "data": [
  ["chr1:39494447:39494448:+_ENSG00000168653_ENST00000372967|hu_mus|hu_hu_hu_mus_False|78_108 (ssRNA) RNA: GGGAGUUCUACAGUCCGACGAUCGCAUCGACCAGCCUUCUUAUAGGGCUGUUCUGCACUCUGGAUUAUAAAGUGCCGGUCCAGGCUGAUGCCCAGCUUUUUCUGUAUGUCAAGGAAAGGCAUGGCUCUGCAGUGCCCUUGUCACAACAGAGGAUUGAGCAUCA", 1]
]}

Here's the next entry for you.
Q) Tell me the measured binding signal of 12280944_12281064_4437_CDS_ENSMUSG00000032625_ENSMUST00000046121|mouse|control|control (ssRNA) RNA: GGGAGUUCUACAGUCCGACGAUCGGGCUGGGUGCAGGUUUCCUCCAAAACUAUUUGUUUAUUACCAUCUAUGAUGAGCUCUGUGUUAGCACAGAACUCUUCGUCCACCACUUUGCUGAAAUCCUCAGCUGAGCCAUCACUCACCAACAGAGGAUUGAGCAUCA , please.
A) 0.732
